- Test system: IL-6 in THP-1 cells
- METHOD_DESCRIPTION: Inhibition of IL-6 in LPS-stimulated THP-1 human monocyte cells (HTRF)
- Format: cell-based
- MEASUREMENT_PARAMETERS: LPS, IL-6 HTRF, at 10 μM, read-out: percent inhibition in brackets (given for EC50 >10 μM)
- Method: Human Monocyte Cell Culture: Human monocyte cell line (THP-1 cells; Catalog # TIB-202, ATCC, Manassas, Va.) were cultured in Roswell Park Memorial Institute (RPMI) 1640 Medium (Catalog #21870-100, Buffalo, N.Y.) with 1% L-glutamine, 1% HEPES, 1% Sodium Pyruvate, 2% Sodium Bicarbonate supplemented with 100 units/mL penicillin, 50 μg/mL streptomycin, 2-mercaptoethanol (0.05 mM) [basal medium] and 10% fetal bovine serum (Catalog #16140089, Life Technologies, Carlsbad, Calif.) at 37° C. and 5% CO2. […]
Quick reference: inhibition at 10 µM of the listed items.

Field: example entries. Status: answers known.
structure_notation=Fc1cccc(-c2cncc3[nH]c(-c4n[nH]c5ccc(-c6cncc(CN7CCC(F)(F)C7)c6)nc45)nc23)c1 recorded_result=21%
structure_notation=COc1cccc(-c2cncc3[nH]c(-c4n[nH]c5ccc(-c6cncc(NC(=O)Cc7ccccc7)c6)nc45)nc23)c1 recorded_result=27.5%

// switching to the query compound
Prompt: Query: inhibition at 10 µM; subject: CC(C)(C)C(=O)Nc1cncc(-c2ccc3[nH]nc(-c4nc5c(-c6ccc(Cl)s6)cncc5[nH]4)c3n2)c1
Completion: 43%

---

- Tested on: IL-6 in THP-1 cells
- METHOD_DESCRIPTION: Inhibition of IL-6 in LPS-stimulated THP-1 human monocyte cells (HTRF)
- Format: cell-based
- MEASUREMENT_PARAMETERS: LPS, IL-6 HTRF, at 10 μM, read-out: percent inhibition in brackets (given for EC50 >10 μM)
inhibition at 10 µM of 40% or higher: MET. Under 40%: NOT MET.

Below are worked cases with known answers.
structure_notation=CN1CCN(c2cncc3[nH]c(-c4n[nH]c5ccc(-c6cncc(N)c6)nc45)nc23)CC1 assay_system="IL-6 in THP-1 cells" label="NOT MET"
structure_notation=CCCC(=O)Nc1cncc(-c2ccc3[nH]nc(-c4nc5c(-c6ccsc6)cncc5[nH]4)c3n2)c1 assay_system="IL-6 in THP-1 cells" label=MET
structure_notation=c1cncc(-c2ccc3[nH]nc(-c4nc5c(-c6cccnc6)cncc5[nH]4)c3n2)c1 assay_system="IL-6 in THP-1 cells" label="NOT MET"

Here's the next entry for you.
Prompt: Is inhibition at 10 µM for Cn1cc(-c2ccc3[nH]nc(-c4nc5c(-c6cccs6)cncc5[nH]4)c3n2)cn1 at or above 40%?
Completion: NOT MET

---

- System: Wnt activity (Sp5-Luc reporter, human Sp5 promoter with eight TCF/LEF binding sites) in SW480 colon carcinoma cells
- METHOD_DESCRIPTION: Screening assay for Wnt activity: Sp5-Luc reporter gene assay in SW480 cells
- Assay type: cell-based
- MEASUREMENT_PARAMETERS: 10 μM, read-out: percent inhibition at 10 μM (given for EC50 of >10 μM)
QUANTITY_MEASURED: inhibition at 10 µM

Field: example entries. Status: answers known.
compound="Cn1cc(-c2ccc3[nH]nc(-c4nc5c(-c6ccc7c(c6)OCO7)cncc5[nH]4)c3n2)c(CO)n1 [Compound 1106]" recorded_result=24.7%
compound="c1cc(-c2cncc3[nH]c(-c4n[nH]c5ccc(-c6cnccn6)nc45)nc23)ccn1 [Compound 556]" recorded_result=9.5%
compound="CS(=O)(=O)NCc1cc(F)cc(-c2cncc3[nH]c(-c4n[nH]c5ccc(-c6cncnc6)nc45)nc23)c1 [Compound 475]" recorded_result=31.4%
compound="c1cncc(-c2ccc3[nH]nc(-c4nc5c(-c6cccnc6)cncc5[nH]4)c3n2)c1 [Compound 88]" recorded_result=28%
compound="C1=C(c2ccc3[nH]nc(-c4nc5c(-c6ccc7c(c6)OCO7)cncc5[nH]4)c3n2)CCNC1 [Compound 1064]" recorded_result=9.5%
compound="Fc1cccc(-c2cncc3[nH]c(-c4n[nH]c5ccc(C6=CCNCC6)nc45)nc23)c1 [Compound 478]" recorded_result=11%
compound="CCNCc1cncc(-c2ccc3[nH]nc(-c4nc5c(-c6ccoc6)cncc5[nH]4)c3n2)c1 [Compound 286]" recorded_result=37.4%
compound="CN(C)CCOc1cncc(-c2ccc3[nH]nc(-c4nc5c(-c6cccs6)cncc5[nH]4)c3n2)c1 [Compound 663]" recorded_result=46.7%
compound="NC1CN(c2cncc(-c3ccc4[nH]nc(-c5nc6c(-c7cccc(F)c7)cncc6[nH]5)c4n3)n2)C1 [Compound 482]" recorded_result=21%
compound="Cn1cc(-c2ccc3[nH]nc(-c4nc5c(-c6cccc(F)c6)cncc5[nH]4)c3n2)cn1 [Compound 480]" recorded_result=13%

Prompt: Query: inhibition at 10 µM; subject: Oc1cncc(-c2ccc3[nH]nc(-c4nc5c(N6CCCCC6)cncc5[nH]4)c3n2)c1 [Compound 585]
Completion: 4.3%

Prompt: Query: inhibition at 10 µM; subject: c1ccc(COc2cncc(-c3ccc4[nH]nc(-c5nc6c(-c7ccncc7)cncc6[nH]5)c4n3)c2)cc1 [Compound 554]
Completion: 0%

Prompt: Query: inhibition at 10 µM; subject: O=C(CC1CCNCC1)Nc1cncc(-c2ccc3[nH]nc(-c4nc5c(-c6ccccn6)cncc5[nH]4)c3n2)c1 [Compound 565]
Completion: 44.2%

Prompt: Query: inhibition at 10 µM; subject: CCNCc1cncc(-c2ccc3[nH]nc(-c4nc5c(-c6cc(F)cc(NCCN(C)C)c6)cncc5[nH]4)c3n2)c1 [Compound 426]
Completion: 8.8%

Prompt: Query: inhibition at 10 µM; subject: COc1cccc(-c2cncc3[nH]c(-c4n[nH]c5ccc(-c6cncc(NC(=O)CC(C)(C)C)c6)nc45)nc23)c1 [Compound 961]
Completion: 0%

Prompt: Query: inhibition at 10 µM; subject: Cc1cn(-c2cncc3[nH]c(-c4n[nH]c5ccc(-c6cncc(NC(=O)CC(C)C)c6)nc45)nc23)cn1 [Compound 198]
Completion: 1.8%

Prompt: Query: inhibition at 10 µM; subject: CN1CCN(c2cncc3[nH]c(-c4n[nH]c5ccc(-c6cncnc6)nc45)nc23)CC1 [Compound 251]
Completion: 14.4%

Prompt: Query: inhibition at 10 µM; subject: COc1cccc(-c2cncc3[nH]c(-c4n[nH]c5ccc(-c6cn[nH]c6)nc45)nc23)c1 [Compound 975]
Completion: 2%

Prompt: Query: inhibition at 10 µM; subject: Nc1cncc(-c2ccc3[nH]nc(-c4nc5c(-c6ccccc6F)cncc5[nH]4)c3n2)c1 [Compound 59]
Completion: 7%

Prompt: Query: inhibition at 10 µM; subject: Cc1ccc(-c2cncc3[nH]c(-c4n[nH]c5ccc(-c6cncc(NC(=O)C7CCCC7)c6)nc45)nc23)s1 [Compound 386]
Completion: 8.7%

Prompt: Query: inhibition at 10 µM; subject: CCNCc1cncc(-c2ccc3[nH]nc(-c4nc5c(-c6ccccn6)cncc5[nH]4)c3n2)c1 [Compound 146]
Completion: 14.2%

Prompt: Query: inhibition at 10 µM; subject: Cc1ccc(-c2cncc3[nH]c(-c4n[nH]c5ccc(C6=CCNCC6)nc45)nc23)s1 [Compound 686]
Completion: 52.6%

---

Quick reference: inhibition at 10 µM of the listed items.
- System: SW480 colon cancer cells
- METHOD_DESCRIPTION: Cell viability assay (CellTiter-Blue) in SW480 colon cancer cells
- Type: cell-based
- MEASUREMENT_PARAMETERS: Homo sapiens, 96 h, 10 μM, four days, CellTiter-Blue, read-out: percent inhibition at 10 μM (given for EC50 of >10 μM)

Field: example entries. Status: answers known.
structure_notation=CC(C)C(=O)Nc1cncc(-c2ccc3[nH]nc(-c4nc5c(-c6ccccc6F)cncc5[nH]4)c3n2)c1 quantity_measured="inhibition at 10 µM" recorded_result=0%
structure_notation=c1cc(-c2ccc3[nH]nc(-c4nc5c(-c6ccncc6)cncc5[nH]4)c3n2)ccn1 quantity_measured="inhibition at 10 µM" recorded_result=0%
structure_notation=COc1cncc(-c2ccc3[nH]nc(-c4nc5c(-c6cccc(F)c6)cncc5[nH]4)c3n2)c1 quantity_measured="inhibition at 10 µM" recorded_result=0%

Prompt: Query: inhibition at 10 µM; subject: O=C(Nc1cncc(-c2ccc3[nH]nc(-c4nc5c(-c6ccccn6)cncc5[nH]4)c3n2)c1)c1ccccc1
Completion: 16.9%

Prompt: Query: inhibition at 10 µM; subject: O=C(Nc1cncc(-c2ccc3[nH]nc(-c4nc5c(-c6cccc(F)c6)cncc5[nH]4)c3n2)c1)C1CC1
Completion: 5.1%

Prompt: Query: inhibition at 10 µM; subject: COc1cccc(-c2cncc3[nH]c(-c4n[nH]c5ccc(-c6cn[nH]c6)nc45)nc23)c1
Completion: 4.1%
